Data origin, for the record: PubChem BioAssay (NCATS)

methodSummary: qHTS for Inhibitors of the vitamin D receptor (VDR): Hit Validation using a Texas Red Assay (AID 602201); further: potency means the concentration at half of the fitted maximal effect
conditionDescription: VDR coregulator binding, Texas Red fluorescence polarization, agonist-bound VDR ligand-binding domain; series mostly up to 57.1 µM
Results filed as inconclusive are left out. Calls of active or inactive are those of the source. The call rests on the fitted dose curve; in most records, active means well fitted curve in the direction sought with a large enough effect; inconclusive means small, poorly fitted or top-dose-only effect, or another doubt; inactive means no such curve, though single readings can be large or run the other way.
measuredAttribute: Potency

Worked set:
Cc1c(C(=O)Nc2nc(-c3ccccn3)cs2)oc2ccccc12 inactive
Cc1cccc(CS(=O)(=O)c2ncc(Cl)c(C(=O)NCc3ccccc3)n2)c1 inactive
CCN(CC)c1ccc(NC(=O)c2cccc(C)c2)cc1S(=O)(=O)Nc1ccccc1OC inactive
COc1ccc(Cl)cc1NC(=O)CCS(=O)(=O)c1nc(-c2cccs2)cc(C(F)(F)F)n1 11.2 µM (active)
COc1cc(/C=C/C(=O)c2cccc([N+](=O)[O-])c2)cc(OC)c1OC 4.47 µM (active)

Reported Potency for O=C(/C=C/c1cccc([N+](=O)[O-])c1)c1ccc2c(c1)OCCO2 was 14.1 µM (active)

Reported Potency for Cc1ccc(NC(=O)C2=C(c3ccccc3)S(=O)(=O)CCS2(=O)=O)cc1 was 10 µM (active)

Reported Potency for c1ccc(CCc2nn3c(Cn4cnc5ccccc54)nnc3s2)cc1 was 28.2 µM (active)

----------
testTarget: Ubiquitin carboxyl-terminal hydrolase 1 (Homo sapiens)
methodSummary: Inhibitors of USP1/UAF1: Pilot qHTS (AID 504865); further: nearly all actives have a fitted effect of over 35% in size
conditionDescription: purified USP1/UAF1, Ub-rhodamine cleavage fluorescence; series mostly up to 114 µM
Records with an inconclusive call do not appear. The source made the active and inactive calls. Calls come from the whole dose curve; as a rule, active = well fitted inhibition curve with a large enough effect; inconclusive = small, poorly fitted or top-dose-only effect; inactive = flat fitted curve, though single readings scatter.
Just give me one of these, please: active, inactive

IN: Which outcome was entered for the compound CC(=O)OC1CC(OC(C)=O)[C@]2(C)C(CC(OC(C)=O)[C@@]3(C)C4=CC(=O)OC(c5ccoc5)[C@]4(C)CCC32)C1(C)C (stereo not given in full) in this test?
OUT: inactive

IN: Which outcome was entered for the compound COc1cc(OC)c2c(c1)OC(c1ccccc1)CC2=O (stereo not given) in this test?
OUT: inactive

IN: Which outcome was entered for the compound COc1ccc(-c2coc3cc(OC)cc(OC)c3c2=O)cc1 in this test?
OUT: inactive

IN: Which outcome was entered for the compound CCC(=O)O[C@H]1C(O[C@@H]2C(C)[C@H](O[C@H]3C[C@@](C)(OC)C(O)C(C)O3)C(C)C(=O)OC(CC)[C@@](C)(O)C(O)[C@H](C)C(=O)C(C)C[C@]2(C)O)OC(C)CC1N(C)C (stereo not given in full) in this test?
OUT: active

IN: Which outcome was entered for the compound C[N+]1(C)C2CC(OC(=O)C(CO)c3ccccc3)CC1C1OC12 (stereo not given) in this test?
OUT: inactive

IN: Which outcome was entered for the compound COc1ccc2cc1Oc1ccc(cc1)CC1c3cc(c(OC)cc3CCN1C)Oc1c(OC)c(OC)cc3c1C(C2)N(C)CC3 (stereo not given) in this test?
OUT: inactive

IN: Which outcome was entered for the compound COc1cc(C(C)=O)cc(OC)c1O in this test?
OUT: inactive

IN: Which outcome was entered for the compound Nc1ncnc2c1nc(Br)n2C1OC(CO)C(O)C1O (stereo not given) in this test?
OUT: inactive

IN: Which outcome was entered for the compound O=C(/C=C/c1ccc(O)cc1)c1cccs1 in this test?
OUT: inactive

IN: Which outcome was entered for the compound CCOC(=O)C(CS)NCCN[C@@H](CS)C(=O)OCC (stereo not given in full) in this test?
OUT: inactive

----------
testTarget: Nuclear receptor subfamily 1 group I member 2 (Rattus norvegicus) (UniProt Q9R1A7)
Sequence (Q9R1A7 whole entry, looked up): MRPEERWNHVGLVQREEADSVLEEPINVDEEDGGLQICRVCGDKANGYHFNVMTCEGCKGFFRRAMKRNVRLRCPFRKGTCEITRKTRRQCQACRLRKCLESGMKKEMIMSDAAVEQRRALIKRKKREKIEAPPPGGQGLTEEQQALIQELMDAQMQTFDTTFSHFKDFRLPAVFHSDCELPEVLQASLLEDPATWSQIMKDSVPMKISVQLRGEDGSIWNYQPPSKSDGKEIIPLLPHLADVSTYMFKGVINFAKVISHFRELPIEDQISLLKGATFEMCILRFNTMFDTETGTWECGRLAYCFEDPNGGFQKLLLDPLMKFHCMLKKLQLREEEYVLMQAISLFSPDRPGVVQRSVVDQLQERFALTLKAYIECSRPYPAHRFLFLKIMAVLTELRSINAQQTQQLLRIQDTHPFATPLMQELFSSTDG
methodSummary: qHTS assay for small molecule activators of the rat pregnane X receptor (rPXR) signaling pathway (AID 651751); further: 0% is about no effect
conditionDescription: rPXR reporter cells, luciferase (One-Glo), 24 h
measuredAttribute: max response (%)
Answer in %, number only, no unit symbol.

Reported max response for O=C(O)C(c1ccc(Cl)cc1)c1ccc(Cl)cc1 was -4.74

Reported max response for COc1cc(Cl)c(OC)cc1N was 6.4

Reported max response for CCCCCCCC(=O)Oc1c(Br)cc(C#N)cc1Br was -8.28

Reported max response for CS/C(=N\O)C(=O)N(C)C was -0.0731

Reported max response for CCCCCCCCCC[N+](C)(C)Cc1ccccc1 was -4.11

Reported max response for CCCCCCCC[Si](Cl)(Cl)Cl was 0.644

Reported max response for CN(C)c1nc(=O)n(C2CCC(O)CC2)c(=O)n1C (stereo unspecified) was -1.79

Reported max response for O=c1oc(=O)c2cc3c(=O)oc(=O)c3cc12 was -1.16

Reported max response for CCCCCCCCCCCCCCN(C)C was -1.42

Reported max response for C[Si](Cl)(Cl)[Si](C)(Cl)Cl was 6.3

Reported max response for CCCCC(CC)C(=O)OCCOCCOCCOC(=O)C(CC)CCCC (stereo unspecified) was 4.7

Reported max response for OCC(CO)(CO)COCC(CO)(CO)CO was 3.21

Reported max response for CCNc1nc(NC(C)CC)nc(OC)n1 (stereo unspecified) was 1.4

Reported max response for CCOCCOCCOC(C)=O was 0.7

Reported max response for COC(=O)c1ccc(I)cc1S(=O)(=O)NC(=O)Nc1nc(C)nc(OC)n1 was 3.28

Reported max response for CCN(Cc1cccc(S(=O)(=O)O)c1)c1ccc(C(=C2C=CC(=[N+](CC)Cc3cccc(S(=O)(=O)[O-])c3)C=C2)c2ccccc2)cc1 was -0.0295

Reported max response for C=C(C)C(=O)OCCOCCOCCOC(=O)C(=C)C was -0.564

Reported max response for CCCCCCCCCCCCN was 0.146

Reported max response for CCc1cccc(C)c1N(C(=O)CS(=O)(=O)O)[C@@H](C)COC was -5.94

Reported max response for C[N+](C)(C)CC(O)CCl (stereo unspecified) was 0.555

Reported max response for CC1(C)CC(NCCCCCCNC2CC(C)(C)NC(C)(C)C2)CC(C)(C)N1 was 1.41

Reported max response for C[Si]1(C)O[Si](C)(C)O[Si](C)(C)O[Si](C)(C)O1 was 3.43

Reported max response for C[Si](C)(Cl)[Si](C)(C)Cl was -0.179

Reported max response for COC(=O)C1CCC(C(=O)OC)CC1 (stereo unspecified) was 2.13

Reported max response for O=C(O)c1cc(O)c2ccccc2c1O was 5.84

Reported max response for Cc1ccc(C(C)(C)C)c(O)c1 was 1.73

Reported max response for Oc1ccc2ccccc2c1N=Nc1ccccc1 was 5.24

Reported max response for CC(C)(C)c1ccc(O)c(C(C)(C)C)c1 was 6.32

Reported max response for C=CC(=O)OCC(C)OCC(C)OCC(C)OC(=O)C=C (stereo unspecified) was -2.64

Reported max response for NCCCCCCCCCCCC(=O)O was -0.534

Reported max response for CCCCCCCCCCCCCCCCCCN was -2.88

Reported max response for O=C(O)C(Oc1ccc(Cl)cc1)Oc1ccc(Cl)cc1 was -9.92

Reported max response for O=C(OCC1CCC2OC2C1)C1CCC2OC2C1 (stereo unspecified) was 1.7

Reported max response for CCCCNS(=O)(=O)c1ccccc1 was -0.0697

Reported max response for CN(C)C(=O)Nc1ccccc1 was 1.09

Reported max response for CCCCCCCCCc1ccccc1 was 1.1

Reported max response for COC(=O)c1cccc(C)c1S(=O)(=O)NC(=O)Nc1nc(OCC(F)(F)F)nc(N(C)C)n1 was -6.52

Reported max response for C=Cc1ccc(P(c2ccccc2)c2ccccc2)cc1 was 0.774

Reported max response for CC(C)CCCCCCCCCCCCCCC(=O)O was 1.88

Reported max response for Cc1cc(C)c(N)c(Cl)c1 was -0.981

Reported max response for OCCC(F)(F)C(F)(F)C(F)(F)C(F)(F)C(F)(F)C(F)(F)C(F)(F)C(F)(F)F was -1.29

Reported max response for CCOC(=O)CC(O)(CC(=O)OCC)C(=O)OCC was -0.162

Reported max response for CCCCCCc1ccc(N)cc1 was -2.28

Reported max response for Oc1ccc(C(c2ccc(O)cc2)C(Cl)(Cl)Cl)cc1 was 2.83

Reported max response for C=C(C)C(=O)OCCC[Si](OC)(OC)OC was -1.68

Reported max response for COC(=O)c1c(Cl)nn(C)c1S(=O)(=O)NC(=O)Nc1nc(OC)cc(OC)n1 was 1.48

Reported max response for Oc1ccc(Nc2ccccc2)cc1 was 0.0407

Reported max response for CC(C)C(=O)OCC(C)(C)C(O)C(C)C (stereo unspecified) was -1.98

Reported max response for CCCCCCCCCCCCCCN was 1.71

Reported max response for C=CCCCCCCCCC=O was -2.8

Reported max response for COC(=O)c1cccc(C(=O)OC)c1 was 2.45

Reported max response for CCCC/C=C\CCCCCCCCCC=O was 4.56

Reported max response for COc1ccc(OC)c(OC)c1 was 3.06

Reported max response for O=c1n(CCO)c(=O)n(CCO)c(=O)n1CCO was -0.84

Reported max response for C=CCCCCCCCCCCCC was 1.46

Reported max response for C[Si]1(C)O[Si](C)(C)O[Si](C)(C)O1 was -5.54
